- Tested on: OVCAR-3
- Assay Info: Growth inhibition of human OVCAR3 cells after 48 hrs by sulforhodamine B assay
- Type: functional
- Experimental Conditions: OVCAR-3, 48 h
# GI50 values compiled below
Quantity: GI50 (µM)

>>> print(df.to_string())
                              smiles_string  target_entity  relation_sign  measured
0  CCCCCCCCCCCC[C@@H](O)[C@H]1CC[C@H]([C@H](O)CCCCCCCCCCCCC2=C[C@H](C)OC2=O)O1        OVCAR-3              >       100
1  CCCCCCCCCCCC[C@@H](O)[C@H]1CC[C@H]([C@H](O)CCCCCCCCCCNC(=O)c2ccnn2C)O1        OVCAR-3              =      77.6
2  CCCCCCCCCCCC[C@@H](O)[C@H]1CC[C@H]([C@H](O)CCCCCCCCCCOC(=O)c2ccnn2C)O1        OVCAR-3              >       100
3  CCCCCCCCCCCC[C@@H](O)[C@H]1CC[C@H]([C@H](O)CCCCCCCCCCN(C)C(=O)c2ccnn2C)O1        OVCAR-3              =        10
4  CCCCCCCCCCCC[C@@H](O)[C@H]1CC[C@H]([C@H](O)CCCCCCCCCCC(=O)Nc2ccnn2C)O1        OVCAR-3              >       100
5  CCCCCCCCCCCC[C@@H](O)[C@H]1CC[C@H]([C@H](O)CCCCCCCCCCNCc2ccnn2C)O1        OVCAR-3              =      1.51
6  CCCCCCCCCCCC[C@@H](O)[C@H]1CC[C@H]([C@H](O)CCCCCCCCCCCCc2ccnn2C)O1        OVCAR-3              >       100

====

- Test system: MDA-MB-231
- Assay Info: Growth inhibition of human MDA-MB-231 cells after 48 hrs by sulforhodamine B assay
- Assay type: functional
- Experimental Conditions: MDA-MB-231, 48 h
GI50 values by entry
Quantity: GI50 (µM)

>>> print(df.to_string())
                              smiles_string  unit_string  relation_sign  measured
0  CCCCCCCCCCCC[C@@H](O)[C@H]1CC[C@H]([C@H](O)CCCCCCCCCCN(C)C(=O)c2ccnn2C)O1           µM              =      8.91
1  CCCCCCCCCCCC[C@@H](O)[C@H]1CC[C@H]([C@H](O)CCCCCCCCCCNCc2ccnn2C)O1           µM              =      2.19
2  CCCCCCCCCCCC[C@@H](O)[C@H]1CC[C@H]([C@H](O)CCCCCCCCCCCCc2ccnn2C)O1           µM              =      32.4
3  CCCCCCCCCCCC[C@@H](O)[C@H]1CC[C@H]([C@H](O)CCCCCCCCCCOC(=O)c2ccnn2C)O1           µM              >       100

====

- Assay Info: Growth inhibition of human RXF631L cells after 48 hrs by sulforhodamine B assay
- Assay type: functional
- Experimental Conditions: RXF 631, 48 h
Quantity: GI50

                              smiles_string  measured
0  CCCCCCCCCCCC[C@@H](O)[C@H]1CC[C@H]([C@H](O)CCCCCCCCCCNCc2ccnn2C)O1    2.4 µM
1  CCCCCCCCCCCC[C@@H](O)[C@H]1CC[C@H]([C@H](O)CCCCCCCCCCCCc2ccnn2C)O1  > 100 µM
2  CCCCCCCCCCCC[C@@H](O)[C@H]1CC[C@H]([C@H](O)CCCCCCCCCCOC(=O)c2ccnn2C)O1  > 100 µM
3  CCCCCCCCCCCC[C@@H](O)[C@H]1CC[C@H]([C@H](O)CCCCCCCCCCN(C)C(=O)c2ccnn2C)O1     11 µM
4  CCCCCCCCCCCC[C@@H](O)[C@H]1CC[C@H]([C@H](O)CCCCCCCCCCNC(=O)c2ccnn2C)O1  > 100 µM
5  CCCCCCCCCCCC[C@@H](O)[C@H]1CC[C@H]([C@H](O)CCCCCCCCCCCCC2=C[C@H](C)OC2=O)O1  > 100 µM
6  CCCCCCCCCCCC[C@@H](O)[C@H]1CC[C@H]([C@H](O)CCCCCCCCCCC(=O)Nc2ccnn2C)O1  > 100 µM

====

- System: MDA-MB-231
- Assay Info: Growth inhibition of human MDA-MB-231 cells after 48 hrs by sulforhodamine B assay
- Format: functional
- Experimental Conditions: MDA-MB-231, 48 h
Consider the following compounds and their measured GI50 readings.
Quantity: GI50

>>> df
                                   compound  quantity  measured
0  CCCCCCCCCCCC[C@@H](O)[C@H]1CC[C@H]([C@H](O)CCCCCCCCCCC(=O)Nc2ccnn2C)O1      GI50  > 100 µM
1  CCCCCCCCCCCC[C@@H](O)[C@H]1CC[C@H]([C@H](O)CCCCCCCCCCNC(=O)c2ccnn2C)O1      GI50   8.51 µM
2  CCCCCCCCCCCC[C@@H](O)[C@H]1CC[C@H]([C@H](O)CCCCCCCCCCCCC2=C[C@H](C)OC2=O)O1 [REL-SOLAMIN]      GI50  > 100 µM

====

- Tested on: SF-268
- Assay Info: Growth inhibition of human SF268 cells after 48 hrs by sulforhodamine B assay
- Assay type: functional
- Experimental Conditions: SF-268, 48 h
Quantity: GI50

>>> print(df.to_string())
                              smiles_string  measured
0  CCCCCCCCCCCC[C@@H](O)[C@H]1CC[C@H]([C@H](O)CCCCCCCCCCNCc2ccnn2C)O1   3.63 µM
1  CCCCCCCCCCCC[C@@H](O)[C@H]1CC[C@H]([C@H](O)CCCCCCCCCCN(C)C(=O)c2ccnn2C)O1   15.1 µM
2  CCCCCCCCCCCC[C@@H](O)[C@H]1CC[C@H]([C@H](O)CCCCCCCCCCCCC2=C[C@H](C)OC2=O)O1  > 100 µM
3  CCCCCCCCCCCC[C@@H](O)[C@H]1CC[C@H]([C@H](O)CCCCCCCCCCC(=O)Nc2ccnn2C)O1  > 100 µM
4  CCCCCCCCCCCC[C@@H](O)[C@H]1CC[C@H]([C@H](O)CCCCCCCCCCOC(=O)c2ccnn2C)O1  > 100 µM
5  CCCCCCCCCCCC[C@@H](O)[C@H]1CC[C@H]([C@H](O)CCCCCCCCCCCCc2ccnn2C)O1  > 100 µM
6  CCCCCCCCCCCC[C@@H](O)[C@H]1CC[C@H]([C@H](O)CCCCCCCCCCNC(=O)c2ccnn2C)O1  > 100 µM

====

- Test system: SNB-75
- Assay Info: Growth inhibition of human SNB75 cells after 48 hrs by sulforhodamine B assay
- Format: functional
- Experimental Conditions: SNB-75, 48 h
Each entry below carries its reported GI50.
Quantity: GI50 (µM)

                              smiles_string  quantity  relation_sign  measured
0  CCCCCCCCCCCC[C@@H](O)[C@H]1CC[C@H]([C@H](O)CCCCCCCCCCNCc2ccnn2C)O1      GI50              =         2
1  CCCCCCCCCCCC[C@@H](O)[C@H]1CC[C@H]([C@H](O)CCCCCCCCCCOC(=O)c2ccnn2C)O1      GI50              >       100
2  CCCCCCCCCCCC[C@@H](O)[C@H]1CC[C@H]([C@H](O)CCCCCCCCCCCCc2ccnn2C)O1      GI50              >       100
3  CCCCCCCCCCCC[C@@H](O)[C@H]1CC[C@H]([C@H](O)CCCCCCCCCCN(C)C(=O)c2ccnn2C)O1      GI50              =      15.8
4  CCCCCCCCCCCC[C@@H](O)[C@H]1CC[C@H]([C@H](O)CCCCCCCCCCC(=O)Nc2ccnn2C)O1      GI50              >       100
5  CCCCCCCCCCCC[C@@H](O)[C@H]1CC[C@H]([C@H](O)CCCCCCCCCCNC(=O)c2ccnn2C)O1      GI50              =      50.1
6  CCCCCCCCCCCC[C@@H](O)[C@H]1CC[C@H]([C@H](O)CCCCCCCCCCCCC2=C[C@H](C)OC2=O)O1      GI50              >       100
